- target system: binding between ZIKV EDIII and EDIII-specific mAb ZV-67 (Zika virus, UniProt Q32ZE1, D679E/I627V/V603I/V629A)
- Construct: human Fc (C)
- Sequence (Q32ZE1 584-695 V603I/I627V/V629A/D679E): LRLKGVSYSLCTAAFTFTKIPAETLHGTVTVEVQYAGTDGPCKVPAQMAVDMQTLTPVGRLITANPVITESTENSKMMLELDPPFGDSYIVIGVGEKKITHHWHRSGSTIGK
- applied conditions: ELISA; EDIII 1.5 μg/ml, mAb 0.5 μg/ml; read-out: IC50, blocking EDIII-mAb binding, ZV-67
measurement name: IC50 (µM)
Field: numeric (µM). Do not append units.

Query: Returns the measured IC50 for the input compound. Input: Cc1cc2c(C(C)C)c(O)c(O)c(/C=N/n3c(=O)[nH][nH]c3=O)c2c(O)c1-c1c(C)cc2c(C(C)C)c(O)c(O)c(/C=N/n3c(=O)[nH][nH]c3=O)c2c1O [ST087010]
Result: 6.7

###

- Tested on: LLC-MK2 cells
- applied conditions: 3 days, CCK8, Table 5
measurement name: CC50 (µM)
Field: numeric (µM). Do not append units.

Query: Returns the measured CC50 for the input compound. Input: `C[C@@H]1CC[C@@]2(OC1)O[C@H]1[C@@H](O)[C@H]3[C@@H]4CC[C@H]5C[C@@H](O[C@@H]6O[C@H](CO)[C@H](O[C@@H]7O[C@H](CO)[C@@H](O)[C@H](O[C@@H]8OC[C@@H](O)[C@H](O)[C@H]8O)[C@H]7O[C@@H]7O[C@H](CO)[C@H](O)[C@H](O[C@@H]8O[C@H](CO)[C@@H](O)[C@H](O)[C@H]8O)[C@H]7O)[C@H](O)[C@H]6O)[C@H](O)C[C@]5(C)[C@H]4CC[C@]3(C)[C@H]1[C@@H]2C`
Result: 59

Query: Returns the measured CC50 for the input compound. Input: `COc1cc(/C=C/C(=O)CC(=O)/C=C/c2ccc(O)c(OC)c2)ccc1O`
Result: 59.4
